Tested on: 266 human PDZ domains (PDZome)
assay info: Holdup assay (chromatographic retention, PDZome-binding profile, BI)
Set-up: key: binding intensity: 0.00 = no binding, 1.00 = maximal binding
study conditions: PDZ domain NHERF4-2
*1 amine or outer side, *2 acyl side, *3 side chain or, on linkers, in order; H or OH if unused. Where a SMILES comes first, the peptide text is derived from it. The star is where a group is joined. X1 = O=C(CCCC[C@@H]1SC[C@@H]2NC(=O)N[C@@H]21)NCCCOCCOCCOCCCN*; Suc = O=C(CCC(=O)[*:2])[*:1]
measured endpoint: BI
When you answer, write just the number.

Below, 3 compounds whose answers are already recorded.
>>> result_number("CC[C@H](C)[C@H](NC(=O)[C@H](CCC(N)=O)NC(=O)[C@@H](NC(=O)[C@H](Cc1c[nH]cn1)NC(=O)[C@H](CCC(N)=O)NC(=O)[C@H](CC(=O)O)NC(=O)[C@H](CCC(=O)O)NC(=O)[C@H](CC(=O)O)NC(=O)[C@H](Cc1ccccc1)NC(=O)[C@@H]1CCCN1C(=O)CCC(=O)NCCCOCCOCCOCCCNC(=O)CCCC[C@@H]1SC[C@@H]2NC(=O)N[C@@H]21)[C@@H](C)O)C(=O)N[C@H](C(=O)N[C@@H](CCCCN)C(=O)N[C@H](C(=O)O)C(C)C)[C@@H](C)O [PTEN_13] ({X1-Suc}-PFDEDQHTQITKV-OH)")
0.132
>>> result_number("CC[C@H](C)[C@H](NC(=O)[C@H](CCC(N)=O)NC(=O)[C@@H](NC(=O)[C@H](Cc1c[nH]cn1)NC(=O)[C@H](CCC(N)=O)NC(=O)[C@H](CC(=O)O)NC(=O)[C@H](CCC(=O)O)NC(=O)[C@H](CC(=O)O)NC(=O)CCC(=O)NCCCOCCOCCOCCCNC(=O)CCCC[C@@H]1SC[C@@H]2NC(=O)N[C@@H]21)[C@@H](C)O)C(=O)N[C@H](C(=O)N[C@@H](CCCCN)C(=O)N[C@H](C(=O)O)C(C)C)[C@@H](C)O")
-0.071
>>> result_number("CC[C@H](C)[C@H](NC(=O)[C@H](CCC(N)=O)NC(=O)[C@@H](NC(=O)[C@H](Cc1c[nH]cn1)NC(=O)[C@H](CCC(N)=O)NC(=O)[C@H](CC(=O)O)NC(=O)[C@H](CCC(=O)O)NC(=O)[C@H](CC(=O)O)NC(=O)CCC(=O)NCCCOCCOCCOCCCNC(=O)CCCC[C@@H]1SC[C@@H]2NC(=O)N[C@@H]21)[C@@H](C)O)C(=O)N[C@H](C(=O)N[C@@H](CCCNC(=N)N)C(=O)N[C@H](C(=O)O)C(C)C)[C@@H](C)O [PTEN_KR] ({X1-Suc}-DEDQHTQITRV-OH)")
-0.071

Let's switch to this compound now.
INPUT: Reported BI, compound `CC[C@H](C)[C@H](NC(=O)[C@H](CCC(N)=O)NC(=O)[C@@H](NC(=O)[C@H](Cc1c[nH]cn1)NC(=O)[C@H](CCC(N)=O)NC(=O)[C@H](CC(=O)O)NC(=O)[C@H](CCC(=O)O)NC(=O)[C@H](CC(=O)O)NC(=O)CCC(=O)NCCCOCCOCCOCCCNC(=O)CCCC[C@@H]1SC[C@@H]2NC(=O)N[C@@H]21)[C@@H](C)O)C(=O)N[C@H](C(=O)N[C@@H](CCCCNC(C)=O)C(=O)N[C@H](C(=O)O)C(C)C)[C@@H](C)O` : ____
OUTPUT: 0.014

---

target under test: NHERF2 PDZ 2 (Homo sapiens)
Construct: made in house; host or cells: E. coli
Sequence (Q15599 150-230 limits assumed): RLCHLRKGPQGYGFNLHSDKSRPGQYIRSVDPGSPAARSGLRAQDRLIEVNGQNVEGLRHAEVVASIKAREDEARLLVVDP
assay info: Holdup assay, NHERF2-2
Type: binding
study conditions: PDZ domain NHERF2-2 (gene MPDZ, 9)
measured endpoint: BI

INPUT: Reported BI, compound `CC[C@H](C)[C@H](NC(=O)[C@H](CCC(N)=O)NC(=O)[C@@H](NC(=O)[C@H](Cc1c[nH]cn1)NC(=O)[C@H](CCC(N)=O)NC(=O)[C@H](CC(=O)O)NC(=O)[C@H](CCC(=O)O)NC(=O)[C@H](CC(=O)O)NC(=O)CCC(=O)NCCCOCCOCCOCCCNC(=O)CCCC[C@@H]1SC[C@@H]2NC(=O)N[C@@H]21)[C@@H](C)O)C(=O)N[C@H](C(=O)N[C@@H](CCCCN)C(=O)N[C@H](C(=O)O)C(C)C)[C@@H](C)O` : ____
OUTPUT: 0.476

---

Entries annotated with measured Max BI
System: 266 human PDZ domains (PDZome)
assay info: Holdup assay (chromatographic retention, PDZome-binding profile, BI)
Parameters: key: binding intensity: 0.00 = no binding, 1.00 = maximal binding
study conditions: maximum over PDZome
*1 amine or outer side, *2 acyl side, *3 side chain or, on linkers, in order; H or OH if unused. Where a SMILES comes first, the peptide text is derived from it. The star is where a group is joined. X1 = O=C(CCCC[C@@H]1SC[C@@H]2NC(=O)N[C@@H]21)NCCCOCCOCCOCCCN*; Suc = O=C(CCC(=O)[*:2])[*:1]
When you answer, write just the number.

Below, 2 compounds whose answers are already recorded.
>>> result_number("CC[C@H](C)[C@H](NC(=O)[C@H](CCC(N)=O)NC(=O)[C@@H](NC(=O)[C@H](Cc1c[nH]cn1)NC(=O)[C@H](CCC(N)=O)NC(=O)[C@H](CC(=O)O)NC(=O)[C@H](CCC(=O)O)NC(=O)[C@H](CC(=O)O)NC(=O)[C@H](Cc1ccccc1)NC(=O)[C@@H]1CCCN1C(=O)CCC(=O)NCCCOCCOCCOCCCNC(=O)CCCC[C@@H]1SC[C@@H]2NC(=O)N[C@@H]21)[C@@H](C)O)C(=O)N[C@H](C(=O)N[C@@H](CCCCN)C(=O)N[C@H](C(=O)O)C(C)C)[C@@H](C)O [PTEN_13] ({X1-Suc}-PFDEDQHTQITKV-OH)")
0.88
>>> result_number("CC[C@H](C)[C@H](NC(=O)[C@H](CCC(N)=O)NC(=O)[C@@H](NC(=O)[C@H](Cc1c[nH]cn1)NC(=O)[C@H](CCC(N)=O)NC(=O)[C@H](CC(=O)O)NC(=O)[C@H](CCC(=O)O)NC(=O)[C@H](CC(=O)O)NC(=O)CCC(=O)NCCCOCCOCCOCCCNC(=O)CCCC[C@@H]1SC[C@@H]2NC(=O)N[C@@H]21)[C@@H](C)O)C(=O)N[C@H](C(=O)N[C@@H](CCCNC(=N)N)C(=O)N[C@H](C(=O)O)C(C)C)[C@@H](C)O [PTEN_KR] ({X1-Suc}-DEDQHTQITRV-OH)")
0.86

Let's switch to this compound now.
INPUT: Reported Max BI, compound `CC[C@H](C)[C@H](NC(=O)[C@H](CCC(N)=O)NC(=O)[C@@H](NC(=O)[C@H](Cc1c[nH]cn1)NC(=O)[C@H](CCC(N)=O)NC(=O)[C@H](CC(=O)O)NC(=O)[C@H](CCC(=O)O)NC(=O)[C@H](CC(=O)O)NC(=O)CCC(=O)NCCCOCCOCCOCCCNC(=O)CCCC[C@@H]1SC[C@@H]2NC(=O)N[C@@H]21)[C@@H](C)O)C(=O)N[C@H](C(=O)N[C@@H](CCCCN)C(=O)N[C@H](C(=O)O)C(C)C)[C@@H](C)O` : ____
OUTPUT: 0.71

---

target under test: SCRIB-3 (Homo sapiens, UniProt Q14160)
Construct: Representative holdup data recorded for three PDZ domains (MAST2-1, HTRA1-1, SCRIB-3); made in house; host or cells: E. coli
Sequence (Q14160 1004-1093 limits assumed): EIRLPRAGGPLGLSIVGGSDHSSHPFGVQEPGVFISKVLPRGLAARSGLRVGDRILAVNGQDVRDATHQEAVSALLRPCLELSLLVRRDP
assay info: Holdup assay, SCRIB-3
Format: binding
study conditions: PDZ domain SCRIB-3
*1 amine or outer side, *2 acyl side, *3 side chain or, on linkers, in order; H or OH if unused. Where a SMILES comes first, the peptide text is derived from it. The star is where a group is joined. X1 = O=C(CCCC[C@@H]1SC[C@@H]2NC(=O)N[C@@H]21)NCCCOCCOCCOCCCN*; Suc = O=C(CCC(=O)[*:2])[*:1]
Entries annotated with measured BI
When you answer, write just the number.

Below, 3 molecules whose answers are already recorded.
>>> result_number("CC[C@H](C)[C@H](NC(=O)[C@H](CCC(N)=O)NC(=O)[C@@H](NC(=O)[C@H](Cc1c[nH]cn1)NC(=O)[C@H](CCC(N)=O)NC(=O)[C@H](CC(=O)O)NC(=O)[C@H](CCC(=O)O)NC(=O)[C@H](CC(=O)O)NC(=O)[C@H](Cc1ccccc1)NC(=O)[C@@H]1CCCN1C(=O)CCC(=O)NCCCOCCOCCOCCCNC(=O)CCCC[C@@H]1SC[C@@H]2NC(=O)N[C@@H]21)[C@@H](C)O)C(=O)N[C@H](C(=O)N[C@@H](CCCCN)C(=O)N[C@H](C(=O)O)C(C)C)[C@@H](C)O [PTEN_13] ({X1-Suc}-PFDEDQHTQITKV-OH)")
-0.068
>>> result_number("CC[C@H](C)[C@H](NC(=O)[C@H](CCC(N)=O)NC(=O)[C@@H](NC(=O)[C@H](Cc1c[nH]cn1)NC(=O)[C@H](CCC(N)=O)NC(=O)[C@H](CC(=O)O)NC(=O)[C@H](CCC(=O)O)NC(=O)[C@H](CC(=O)O)NC(=O)CCC(=O)NCCCOCCOCCOCCCNC(=O)CCCC[C@@H]1SC[C@@H]2NC(=O)N[C@@H]21)[C@@H](C)O)C(=O)N[C@H](C(=O)N[C@@H](CCCCNC(C)=O)C(=O)N[C@H](C(=O)O)C(C)C)[C@@H](C)O [PTEN_Ac]")
-0.053
>>> result_number("CC[C@H](C)[C@H](NC(=O)[C@H](CCC(N)=O)NC(=O)[C@@H](NC(=O)[C@H](Cc1c[nH]cn1)NC(=O)[C@H](CCC(N)=O)NC(=O)[C@H](CC(=O)O)NC(=O)[C@H](CCC(=O)O)NC(=O)[C@H](CC(=O)O)NC(=O)CCC(=O)NCCCOCCOCCOCCCNC(=O)CCCC[C@@H]1SC[C@@H]2NC(=O)N[C@@H]21)[C@@H](C)O)C(=O)N[C@H](C(=O)N[C@@H](CCCCN)C(=O)N[C@H](C(=O)O)C(C)C)[C@@H](C)O [PTEN_11]")
0.058

Let's switch to this molecule now.
INPUT: Reported BI, molecule CC[C@H](C)[C@H](NC(=O)[C@H](CCC(N)=O)NC(=O)[C@@H](NC(=O)[C@H](Cc1c[nH]cn1)NC(=O)[C@H](CCC(N)=O)NC(=O)[C@H](CC(=O)O)NC(=O)[C@H](CCC(=O)O)NC(=O)[C@H](CC(=O)O)NC(=O)CCC(=O)NCCCOCCOCCOCCCNC(=O)CCCC[C@@H]1SC[C@@H]2NC(=O)N[C@@H]21)[C@@H](C)O)C(=O)N[C@H](C(=O)N[C@@H](CCCNC(=N)N)C(=O)N[C@H](C(=O)O)C(C)C)[C@@H](C)O [PTEN_KR] ({X1-Suc}-DEDQHTQITRV-OH) : ____
OUTPUT: 0.022
